Molecular target: gastrin (CCK2) receptors (Rattus norvegicus)
Construct: The stomach was excised and flushed with ca. 1 ml of unbuffered physiological saline solution; from tissue; host or cells: isolated whole stomach of immature rats (33-50 g, ca. 21 days old)
Sequence (P30553 1-452): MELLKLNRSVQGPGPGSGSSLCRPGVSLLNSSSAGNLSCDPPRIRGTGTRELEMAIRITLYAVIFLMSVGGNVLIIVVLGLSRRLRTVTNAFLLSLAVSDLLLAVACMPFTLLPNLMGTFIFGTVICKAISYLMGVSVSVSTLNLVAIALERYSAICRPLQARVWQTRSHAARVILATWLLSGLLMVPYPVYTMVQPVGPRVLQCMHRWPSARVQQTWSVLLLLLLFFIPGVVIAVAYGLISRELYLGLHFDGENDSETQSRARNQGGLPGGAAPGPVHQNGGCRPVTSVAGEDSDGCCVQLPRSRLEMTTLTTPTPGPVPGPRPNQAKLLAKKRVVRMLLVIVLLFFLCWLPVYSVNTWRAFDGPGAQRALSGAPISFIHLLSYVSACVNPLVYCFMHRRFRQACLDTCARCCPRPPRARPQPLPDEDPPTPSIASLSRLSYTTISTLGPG
Test: immature rat stomach assay for gastrin (CCK2) antagonist activity (pentagastrin-stimulated acid secretion)
Settings: isolated immature rat stomach, antagonism of pentagastrin dose-response curves, 60 min incubation; tested as N-methyl D-glucamine salts
Method: The compounds of the examples were tested for gastrin (CCK2) antagonist activity in an immature rat stomach assay. The procedure was as follows: […] After 120 min of stabilisation the drugs were added directly to the serosal solution in the organ bath and after a further 60 min cumulative pentagastrin dose-response curves were started. Changes in acid secretion were monitored and the curves analysed according to Black et al, Br. J. Pharmacol., 1985, 86, 581.
property_measured: Rat stomach pKB
Enter the number alone.

Please review the following examples before continuing.
O=C(O)c1cccc(NC(=O)c2nn[nH]c2COC23CC4CC(CC(C4)C2)C3)c1 = 5.65
O=C(O)c1cccc(NC(=O)c2nn(C3CC4CCC3C4)nc2COC23CC4CC(CC(C4)C2)C3)c1 (stereo not shown) = 8.37
O=C(O)c1cccc(NC(=O)c2nn(C3C4CC5CC(C4)CC3C5)nc2COC23CC4CC(CC(C4)C2)C3)c1 (stereo not shown) = 6.82

Read the next record carefully.
Short answer please: Rat stomach pKB, gastrin (CCK2) receptors (Rattus norvegicus), entry Nc1ccccc1-n1nc(COC23CC4CC(CC(C4)C2)C3)c(C(=O)Nc2cccc(C(=O)O)c2)n1 6.67

###

The following compounds are shown together with reported Kb values.
Biological target: gastrin (CCK2) receptors (Rattus norvegicus, UniProt P30553)
Construct: The stomach was excised and flushed with ca. 1 ml of unbuffered physiological saline solution; from tissue; host or cells: isolated whole stomach of immature rats (33-50 g, ca. 21 days old)
Sequence (P30553 1-452): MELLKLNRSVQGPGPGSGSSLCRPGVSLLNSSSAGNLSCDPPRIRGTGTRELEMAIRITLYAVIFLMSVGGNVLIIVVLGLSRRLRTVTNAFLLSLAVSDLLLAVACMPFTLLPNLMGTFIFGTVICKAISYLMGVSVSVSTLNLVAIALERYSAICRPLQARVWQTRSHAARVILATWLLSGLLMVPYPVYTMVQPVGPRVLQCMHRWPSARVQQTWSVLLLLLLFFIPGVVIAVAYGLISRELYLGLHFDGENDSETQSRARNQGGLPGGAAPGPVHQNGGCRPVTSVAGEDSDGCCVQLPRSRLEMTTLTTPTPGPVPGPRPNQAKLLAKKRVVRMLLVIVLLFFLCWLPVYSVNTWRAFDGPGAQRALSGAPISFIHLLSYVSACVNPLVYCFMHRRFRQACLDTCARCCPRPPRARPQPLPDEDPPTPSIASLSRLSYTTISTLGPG
Assay: immature rat stomach assay for gastrin (CCK2) antagonist activity (pentagastrin-stimulated acid secretion)
Conditions: isolated immature rat stomach, antagonism of pentagastrin dose-response curves, 60 min incubation; tested as N-methyl D-glucamine salts; read-out: Rat stomach pKB (converted)
Field format: number, assumed nM, no unit text.

Sample records with Kb:
O=C(O)c1cccc(NC(=O)c2nn(-c3c(Cl)cccc3Cl)nc2COC23CC4CC(CC(C4)C2)C3)c1 = 13.2
O=C(O)c1cccc(NC(=O)c2nn(-c3c(Cl)cccc3Cl)nc2COC2CCCCC2)c1 = 275

Using the record for Cc1ccc(C)c(-n2nc(COC34CC5CC(CC(C5)C3)C4)c(C(=O)Nc3cccc(C(=O)O)c3)n2)c1 , report its Kb. 282

Recorded Kb for O=C(O)c1cccc(NC(=O)c2nnn(-c3ccccc3Cl)c2COC23CC4CC(CC(C4)C2)C3)c1 , please? 93.3
